# target.or.test.system: T1, ZFP SBS#1186 (synthetic)
# T1 chain: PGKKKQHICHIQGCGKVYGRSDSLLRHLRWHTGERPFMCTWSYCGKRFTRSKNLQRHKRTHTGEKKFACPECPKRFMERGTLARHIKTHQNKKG
# assay.name: EMSA
# setup.conditions: tags: MBP fusion
measured.metric: Kd

IN: Looking for the measured Kd of GCCGAGGTG (dsDNA) DNA 1: GCCGAGGTG DNA 2: CACCTCGGC , can you help?
OUT: 27.5 nM
